Test system: barnyardgrass (Echinochloa crus-galli)
Assay: General preemergence herbicidal activity, ECHCG
Assay type: in vivo
Conditions: 140 g ai/ha, applied to soil surface, visual score after 20-22 days, 0 = no injury, 100 = complete kill or no emergence, read-out: Pre-emergent Weed Control ECHCG
For each record, write down the corresponding pest or weed control at 140 g/ha.
Give bare numbers, in %.

Sample records with pest or weed control at 140 g/ha:
COMPOUND: C=Cc1c(N)cc(-c2ccc(Cl)c(OC)c2F)nc1C(=O)OC [Compound 28]
TARGET DESC: barnyardgrass (Echinochloa crus-galli)
pest or weed control at 140 g/ha [%]: 70
//
COMPOUND: C=Cc1c(N)nc(-c2ccc(Cl)c(OC)c2F)nc1C(=O)OC [Compound 3]
TARGET DESC: barnyardgrass (Echinochloa crus-galli)
pest or weed control at 140 g/ha [%]: 80

Now for another entry.
barnyardgrass (Echinochloa crus-galli) assay, compound C/C=C\c1c(N)nc(-c2ccc(Cl)c(OC)c2F)nc1C(=O)O [Compound 55] , recorded pest or weed control at 140 g/ha = 60

* * *

Test system: velvetleaf (Abutilon theophrasti)
Assay: General postemergence herbicidal activity, ABUTH
Type: in vivo
Settings: Abutilon theophrasti, post-emergence, 336 h, 280 g ai/ha, postemergence spray, visual score after 14 days, 0 = no injury, 100 = complete kill; read-out: Post-emergent Weed Control ABUTH
Criterion: pest or weed control at 280 g/ha strictly less than 90%. Met: Criterion met. Not met: Criterion not met.

Consider the worked cases shown below.
COMPOUND: C=Cc1c(N)nc(-c2ccc(Cl)c(OC(F)F)c2F)nc1C(=O)O
QUALITATIVE LABEL: Criterion not met
//
COMPOUND: C=Cc1c(N)nc(-c2ccc(Cl)c(OC(F)F)c2F)nc1C(=O)OC
QUALITATIVE LABEL: Criterion not met
//
COMPOUND: COC(=O)c1nc(-c2ccc(Cl)cc2)c(F)c(N)c1C
QUALITATIVE LABEL: Criterion met
//
COMPOUND: COc1c(Cl)ccc(-c2nc(N)c(C(C)OC)c(C(=O)O)n2)c1F (stereo not drawn)
QUALITATIVE LABEL: Criterion met
//
COMPOUND: C=Cc1c(N)cc(-c2ccc(Cl)cc2F)nc1C(=O)OC
QUALITATIVE LABEL: Criterion met

Say whether its pest or weed control at 280 g/ha is strictly beneath 90%. Entry: COC(=O)c1nc(-c2ccc(Cl)c(OC)c2F)cc(N)c1C=O
Criterion not met

Say whether its pest or weed control at 280 g/ha is strictly beneath 90%. Entry: C=Cc1c(N)nc(-c2ccc(Cl)c(C(C)F)c2)nc1C(=O)OC (stereo not drawn)
Criterion met

* * *

ASSAY READOUT: melting point

COMPOUND: C=Cc1c(N)nc(-c2ccc(Cl)cc2)nc1C(=O)OC
ASSAY READOUT: melting point
RESULT: 164 to 167 °C
--
COMPOUND: C=Cc1c(N)nc(-c2ccc(Cl)c(OC)c2)nc1C(=O)OC
ASSAY READOUT: melting point
RESULT: 144 to 148 °C
--
COMPOUND: C=Cc1c(N)nc(-c2ccc(Cl)cc2F)nc1C(=O)OC
ASSAY READOUT: melting point
RESULT: 137 to 139 °C

Provide each entry's melting point from the list below.
1. C=Cc1c(N)nc(C2CC2)nc1C(=O)OCC
2. C=Cc1c(N)nc(-c2ccc(Cl)cc2F)nc1C(=O)O
3. C=Cc1c(N)cc(-c2ccc(Cl)cc2F)nc1C(=O)O
4. C=Cc1c(N)nc(-c2cc(F)c(Cl)cc2F)nc1C(=O)O
5. COC(=O)c1nc(-c2ccc(Cl)c(OC)c2F)nc(N)c1C
6. COc1c(Cl)ccc(-c2nc(N)c(C)c(C(=O)O)n2)c1F
7. C=Cc1c(N)nc(-c2ccc(Cl)c(F)c2F)nc1C(=O)O
8. C=Cc1c(N)nc(-c2cc(OC)c(Cl)cc2F)nc1C(=O)OC

["155 to 157 °C", "167 to 169 °C", "209 to 211 °C", "81 to 83 °C", "168 to 170 °C", "201 to 203 °C", "170 to 172 °C", "161 to 164 °C"]

Provide each entry's melting point from the list below.
1. C=Cc1c(N)nc(-c2ccc(Cl)c(C(C)F)c2F)nc1C(=O)O (stereo not shown)
2. C=Cc1c(N)nc(C2CC2)nc1C(=O)O

1. 150 to 153 °C
2. 187 to 189 °C
